inhibition values by entry
Target: Large T antigen (Simian virus 40)
Experiment: SV40 large T antigen inhibitors, biochemical (AID 1903)
Settings: SV40 large T antigen ATPase/helicase inhibition assay; at 20 µM; stronger effect = higher value
In all, about 310,000 compounds went through this assay and about 1,200 (0.39%) were called active. These entries were drawn from the full list. Entries with a potency or affinity are not part of this list.

- COMPOUND: "O=S(=O)(O)c1cc(O)ccc1O"
  UNIT_ANNOTATION: "%"
  inhibition: 25.8
- COMPOUND: "C=CCOc1ccc(C=Nc2ccc(OC)cc2)c(O)c1"
  UNIT_ANNOTATION: "%"
  inhibition: 28.3
- COMPOUND: "O=C(NCC(c1cccnc1)N1CCN(c2ccccc2)CC1)C1CCCCC1 (centres undefined)"
  UNIT_ANNOTATION: "%"
  inhibition: 2.45
- COMPOUND: "Nc1cccc(S(=O)(=O)c2ccc(N)c(N)c2)c1"
  UNIT_ANNOTATION: "%"
  inhibition: 25.5
